Reported growth values for a set of compounds
# Tested on: OVCAR-5 ovarian
# test description: NCI-60 one-dose screen, 48 h (100 = growth as untreated, 0 = no growth, -100 = all killed)
# stated conditions: 10 µM
This is part of a sample that, as a whole, favours compounds with a hit. Of some 83,000 tested, about 20% had one in any assay.
Give the value, in units of %, as a plain number.

Illustrative cases are given below, each with its answer.
>>> value("O=C1/C(=C\\c2ccccc2)CN(C(=O)c2ccccc2F)C/C1=C\\c1ccccc1")
64.9
>>> value("CC[C@H]1CCC/C=C/[C@@H]2C[C@H](O)C[C@H]2[C@H](O)/C=C/C(=O)O1")
7.93
>>> value("Nc1c(C(=O)Nc2ccccc2)sc2nc3c(cc12)CCCC3")
62
>>> value("CC(C)(C)c1ccc(N2CSC(=S)N(c3ccc(C(C)(C)C)cc3)C2)cc1")
101
>>> value("CN(C)N=Nc1nn(C(=O)Nc2ccc(Cc3ccccc3)cc2)c2ccccc12")
71
>>> value("CCCCCCCNc1nc(C=O)ncc1-c1ccc(C(F)(F)F)cc1")
103
>>> value("N=c1nc(N)ncn1-c1ccccc1")
95
>>> value("O=S(=O)(NCCCNc1nccc(-c2c(-c3ccc(F)cc3)nc3sccn23)n1)c1ccc(F)cc1")
62.7
>>> value("O=C(O)CCCCSc1ncnc2nc[nH]c12")
102
>>> value("Nc1cc2c(cc1Cl)-c1ccc([N+](=O)[O-])cc1/C2=N\\O")
145

Cc1cccc2c1O/C(=C\c1ccc([N+](=O)[O-])o1)C2=O yielded growth of -20.8

For CCN(CC)CCSCCCNc1c2ccc(Cl)cc2nc2ccc(OC)cc12 the compound record lists growth as -16.7

Lab note: N=C(N)c1ccc(-c2ccc(-c3cccs3)o2)cc1 gave growth of 70.3

get_value(item= N#CCCN1C/C(=C/c2ccc(Br)cc2)C(=O)/C(=C/c2ccc(Br)cc2)C1 , readout=growth) returns 2.15
